Provenance of the data: ChEMBL document CHEMBL4316588

assay: Solubility of the compound in water incubated at 37 degC for 24 hrs by LC/MS/MS analysis; type: physicochemical
value_type: solubility at 24 h (µM)
Report the value in µM with no unit label.

Record request: solubility at 24 h value, item C[C@@H]1CN2c3c(cc4c(N5CCOC5=O)noc4c3F)CC3(C(=O)NC(=O)NC3=O)[C@H]2[C@H](C)O1 128

Record request: solubility at 24 h value, item C[C@@H]1CN2c3c(cc4c(N5C[C@H](C)SC5=O)noc4c3F)CC3(C(=O)NC(=O)NC3=O)[C@H]2[C@H](C)O1 10.2

Record request: solubility at 24 h value, item C[C@@H]1CN2c3c(cc4c(N5CC6(CC6)OC5=O)noc4c3F)CC3(C(=O)NC(=O)NC3=O)[C@H]2[C@H](C)O1 277

====

experiment: Volume of distribution at steady state in Sprague-Dawley rat at 10 mg/kg, iv by LC-MS/MS analysis; type: ADME, organism-based; conditions: in vivo, read-out: Vdss
value_type: Vd (L/kg)
Report the value in L/kg with no unit label.

Record request: Vd value, item C[C@@H]1CN2c3c(cc4c(N5CC6(CC6)OC5=O)noc4c3F)CC3(C(=O)NC(=O)NC3=O)[C@H]2[C@H](C)O1 0.482

====

Molecular target: UniProt:P05177
Sequence (P05177 whole entry): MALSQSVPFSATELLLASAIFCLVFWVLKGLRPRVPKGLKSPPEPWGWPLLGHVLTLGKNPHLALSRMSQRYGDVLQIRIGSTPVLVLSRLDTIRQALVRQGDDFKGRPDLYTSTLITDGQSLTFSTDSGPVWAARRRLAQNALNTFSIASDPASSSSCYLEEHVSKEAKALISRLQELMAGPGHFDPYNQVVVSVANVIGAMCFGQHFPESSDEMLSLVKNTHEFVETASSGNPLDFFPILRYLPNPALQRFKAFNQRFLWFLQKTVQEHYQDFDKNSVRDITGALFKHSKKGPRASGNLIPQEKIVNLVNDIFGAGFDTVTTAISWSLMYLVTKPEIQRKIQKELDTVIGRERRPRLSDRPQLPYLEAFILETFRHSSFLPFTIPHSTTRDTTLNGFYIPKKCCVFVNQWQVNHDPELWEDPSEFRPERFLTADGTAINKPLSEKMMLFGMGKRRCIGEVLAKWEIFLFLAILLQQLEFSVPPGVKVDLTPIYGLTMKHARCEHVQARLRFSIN
value_type: pIC50
Remember, pIC50 is on a log scale: it is -log10 of the molar concentration.

Record request: pIC50 value, item C[C@@H]1CN2c3c(cc4c(N5CC6(CC6)OC5=O)noc4c3F)CC3(C(=O)NC(=O)NC3=O)[C@H]2[C@H](C)O1 4.89

====

biological target: Cytochrome P450 3A4 (Homo sapiens); assay: Inhibition of CYP3A4 in human liver microsomes using midazolam as substrate preincubated for 10 mins followed by NADPH addition and measured for 15 mins by LC-MS/MS analysis; format: ADME
Sequence (P08684 whole entry): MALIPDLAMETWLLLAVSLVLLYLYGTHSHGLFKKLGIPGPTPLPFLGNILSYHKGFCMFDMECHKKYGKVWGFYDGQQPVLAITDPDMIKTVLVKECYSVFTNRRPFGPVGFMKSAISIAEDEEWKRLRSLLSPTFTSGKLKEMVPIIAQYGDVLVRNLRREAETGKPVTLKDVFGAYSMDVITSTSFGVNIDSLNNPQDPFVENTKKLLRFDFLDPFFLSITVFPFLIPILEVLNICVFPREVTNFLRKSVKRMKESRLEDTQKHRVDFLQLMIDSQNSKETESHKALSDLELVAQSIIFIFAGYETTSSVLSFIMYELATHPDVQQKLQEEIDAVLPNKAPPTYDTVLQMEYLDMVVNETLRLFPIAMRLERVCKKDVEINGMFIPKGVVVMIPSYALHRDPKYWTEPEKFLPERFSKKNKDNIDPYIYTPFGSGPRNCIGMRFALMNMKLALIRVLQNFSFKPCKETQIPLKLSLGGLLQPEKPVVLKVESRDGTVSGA
value_type: IC50

Recall the recorded IC50 for C[C@@H]1CN2c3c(cc4c(N5CC6(CC6)OC5=O)noc4c3F)CC3(C(=O)NC(=O)NC3=O)[C@H]2[C@H](C)O1 with Cytochrome P450 3A4 (Homo sapiens) and state it. > 25 µM

====

value_type: IC50

Recall the recorded IC50 for C[C@@H]1CN2c3c(cc4c(N5CC6(CC6)OC5=O)noc4c3F)CC3(C(=O)NC(=O)NC3=O)[C@H]2[C@H](C)O1 with Cytochrome P450 2D6 (Homo sapiens, UniProt P10635) and state it. > 25 µM

====

tested on: Streptococcus pneumoniae; experiment: Antibacterial activity against penicillin-resistant Streptococcus pneumoniae after 18 to 20 hrs by CLSI-protocol based broth microdilution method; format: functional
value_type: MIC

Record request: MIC value, item C[C@@H]1CN2c3c(cc4c(N5C(=O)S[C@H]6CCC[C@H]65)noc4c3F)CC3(C(=O)NC(=O)NC3=O)[C@H]2[C@H](C)O1 0.25 to 0.5 µg/mL

Record request: MIC value, item C[C@@H]1CN2c3c(cc4c(N5C[C@H](CF)SC5=O)noc4c3F)CC3(C(=O)NC(=O)NC3=O)[C@H]2[C@H](C)O1 0.06 to 0.25 µg/mL

Record request: MIC value, item C[C@@H]1CN2c3c(cc4c(N5C(=O)SC[C@@H]5Cc5ccccc5)noc4c3F)CC3(C(=O)NC(=O)NC3=O)[C@H]2[C@H](C)O1 4 to 8 µg/mL

====

test system: Staphylococcus epidermidis; experiment: Antibacterial activity against methicillin-sensitive Staphylococcus epidermidis after 18 to 20 hrs by CLSI-protocol based broth microdilution method; assay type: functional
The source made the active and inactive calls. The rule behind the calls is not given here.
value_type: MIC

Answered cases to consult:
C[C@@H]1CN2c3c(cc4c(N5CCCOC5=O)noc4c3F)CC3(C(=O)NC(=O)NC3=O)[C@H]2[C@H](C)O1 (racemic)
4 µg/mL
C[C@@H]1CN2c3c(cc4c(N5CCSCC5)ncnc4c3F)CC3(C(=O)NC(=O)NC3=O)[C@H]2[C@H](C)O1 (racemic)
inactive
C[C@@H]1CN2c3c(cc4c(N5CCOC5=O)noc4c3F)CC3(C(=O)NC(=O)NC3=O)[C@H]2[C@H](C)O1
0.06 to 0.25 µg/mL
C[C@@H]1CN2c3c(cc4c(N5C(=O)S[C@@H]6CCC[C@@H]65)noc4c3F)CC3(C(=O)NC(=O)NC3=O)[C@H]2[C@H](C)O1
< 0.03 µg/mL
C[C@@H]1CN2c3c(cc4c(N5CCOC5=O)ncnc4c3F)CC3(C(=O)NC(=O)NC3=O)[C@H]2[C@H](C)O1 (relative stereo)
inactive
C[C@@H]1CN2c3c(cc4c(N5C(=O)SC[C@@H]5Cc5ccccc5)noc4c3F)CC3(C(=O)NC(=O)NC3=O)[C@H]2[C@H](C)O1
1 to 4 µg/mL

Query compound follows.
Recall the recorded MIC for C[C@@H]1CN(c2noc3c(C#N)c4c(cc23)CC2(C(=O)NC(=O)NC2=O)[C@H]2[C@H](C)O[C@H](C)CN42)C(=O)O1 with Staphylococcus epidermidis and state it. 1 to 2 µg/mL

====

Kindly state solubility at 24 h for each of the entries shown.
assay: Solubility of the compound in pH 1.2 gastric juice incubated at 37 degC for 24 hrs by LC/MS/MS analysis; format: physicochemical
Report the value in µM with no unit label.

Record request: solubility at 24 h value, item C[C@@H]1CN2c3c(cc4c(N5C[C@H](C)SC5=O)noc4c3F)CC3(C(=O)NC(=O)NC3=O)[C@H]2[C@H](C)O1 9.4

Record request: solubility at 24 h value, item C[C@@H]1CN2c3c(cc4c(N5CCOC5=O)noc4c3F)CC3(C(=O)NC(=O)NC3=O)[C@H]2[C@H](C)O1 121

Record request: solubility at 24 h value, item C[C@@H]1CN2c3c(cc4c(N5CC6(CC6)OC5=O)noc4c3F)CC3(C(=O)NC(=O)NC3=O)[C@H]2[C@H](C)O1 151

====

assay: Elimination half life in Sprague-Dawley rat at 10 mg/kg, iv by LC-MS/MS analysis; format: ADME, organism-based; conditions: in vivo, read-out: beta t1/2 (converted)
value_type: half-life (h)
Report the value in h with no unit label.

Record request: half-life value, item C[C@@H]1CN2c3c(cc4c(N5CC6(CC6)OC5=O)noc4c3F)CC3(C(=O)NC(=O)NC3=O)[C@H]2[C@H](C)O1 3.82

====

tested on: Streptococcus pyogenes; experiment: Antibacterial activity against Streptococcus pyogenes after 18 to 20 hrs by CLSI-protocol based broth microdilution method; assay type: functional; conditions: Streptococcus pyogenes; read-out: MIC
value_type: MIC

Record request: MIC value, item COC[C@H]1CN(c2noc3c(F)c4c(cc23)CC2(C(=O)NC(=O)NC2=O)[C@H]2[C@H](C)O[C@H](C)CN42)C(=O)S1 0.25 to 0.5 µg/mL

Record request: MIC value, item C[C@@H]1CN2c3c(cc4c(N5C[C@H](CS(C)(=O)=O)SC5=O)noc4c3F)CC3(C(=O)NC(=O)NC3=O)[C@H]2[C@H](C)O1 0.5 to 1 µg/mL

Record request: MIC value, item C[C@@H]1CN2c3c(cc4c(N5C[C@H](C)SC5=O)noc4c3C#N)CC3(C(=O)NC(=O)NC3=O)[C@H]2[C@H](C)O1 0.125 to 0.5 µg/mL

Record request: MIC value, item C[C@@H]1CN2c3c(cc4c(N5CC6(COC6)OC5=O)noc4c3F)CC3(C(=O)NC(=O)NC3=O)[C@H]2[C@H](C)O1 0.125 to 0.25 µg/mL

Record request: MIC value, item C[C@@H]1CN2c3c(cc4c(N5C(=O)SCC56CC6)noc4c3F)CC3(C(=O)NC(=O)NC3=O)[C@H]2[C@H](C)O1 4 µg/mL

Record request: MIC value, item C[C@@H]1CN(c2noc3c(C#N)c4c(cc23)CC2(C(=O)NC(=O)NC2=O)[C@H]2[C@H](C)O[C@H](C)CN42)C(=O)O1 4 to 8 µg/mL

Record request: MIC value, item C[C@@H]1CN2c3c(cc4c(N5C(=O)OCC56CC6)noc4c3F)CC3(C(=O)NC(=O)NC3=O)[C@H]2[C@H](C)O1 (racemic) 1 to 2 µg/mL

Record request: MIC value, item C[C@@H]1CN2c3c(cc4c(N5C[C@@H](C)SC5=O)noc4c3F)CC3(C(=O)NC(=O)NC3=O)[C@H]2[C@H](C)O1 < 0.03 µg/mL

Record request: MIC value, item CC[C@@H]1CN(c2noc3c(F)c4c(cc23)CC2(C(=O)NC(=O)NC2=O)[C@H]2[C@H](C)O[C@H](C)CN42)C(=O)S1 < 0.03 µg/mL

Record request: MIC value, item C[C@@H]1CN2c3c(cc4c(N5C(=O)S[C@H]6CCC[C@H]65)noc4c3F)CC3(C(=O)NC(=O)NC3=O)[C@H]2[C@H](C)O1 0.125 µg/mL

Record request: MIC value, item C[C@@H]1CN2c3c(cc4c(N5CCOC5=O)noc4c3F)CC3(C(=O)NC(=O)NC3=O)[C@H]2[C@H](C)O1 0.25 to 0.5 µg/mL

Record request: MIC value, item C[C@@H]1CN2c3c(cc4c(N5CC6(CC6)OC5=O)noc4c3F)CC3(C(=O)NC(=O)NC3=O)[C@H]2[C@H](C)O1 (racemic) ≤ 0.03 µg/mL

Record request: MIC value, item C[C@@H]1CN2c3c(cc4c(N5CC6(CC6)OC5=O)noc4c3C#N)CC3(C(=O)NC(=O)NC3=O)[C@H]2[C@H](C)O1 4 µg/mL

Record request: MIC value, item C[C@@H]1CN2c3c(cc4c(N5C[C@H](COC(F)(F)F)SC5=O)noc4c3F)CC3(C(=O)NC(=O)NC3=O)[C@H]2[C@H](C)O1 0.125 to 0.25 µg/mL
